- TEST_DETAILS: Plasma concentration in healthy human at 100 mg, po administered with high fat meal measured after 12 hrs
- Assay type: ADME, organism-based
REPORTED_PROPERTY: concentration at 12 h (ng/mL)

• COc1cnc(OC)c2c1c(C(=O)C(=O)N1CCN(C(=O)c3ccccc3)CC1)cn2COP(=O)(O)O.NCCCC[C@H](N)C(=O)O = 12

---

- TEST_DETAILS: Tmax in healthy human at 25 mg, po administered with high fat meal
- Format: ADME, organism-based
- EXPERIMENTAL_PARAMETERS: in vivo
REPORTED_PROPERTY: Tmax (min)

• COc1cnc(OC)c2c1c(C(=O)C(=O)N1CCN(C(=O)c3ccccc3)CC1)cn2COP(=O)(O)O.NCCCC[C@H](N)C(=O)O = 30

---

- TEST_DETAILS: Tmax in healthy human at 100 mg, po administered with high fat meal
- Type: ADME, organism-based
- EXPERIMENTAL_PARAMETERS: in vivo
REPORTED_PROPERTY: Tmax (min)

• COc1cnc(OC)c2c1c(C(=O)C(=O)N1CCN(C(=O)c3ccccc3)CC1)cn2COP(=O)(O)O.NCCCC[C@H](N)C(=O)O = 30

---

- TEST_DETAILS: Plasma concentration in healthy human at 400 mg, po administered with high fat meal measured after 12 hrs
- Type: ADME, organism-based
REPORTED_PROPERTY: concentration at 12 h (ng/mL)

* COc1cnc(OC)c2c1c(C(=O)C(=O)N1CCN(C(=O)c3ccccc3)CC1)cn2COP(=O)(O)O.NCCCC[C@H](N)C(=O)O | 59

---

- TEST_DETAILS: Volume of distribution at steady state in beagle dog at 1.2 mg/kg, iv
- Type: ADME, organism-based, Canis lupus familiaris
- Design: dose 1.2 mg/kg, route intravenous
- EXPERIMENTAL_PARAMETERS: in vivo, read-out: Vdss
REPORTED_PROPERTY: Vd (L/kg)

- COc1cnc(OC)c2c1c(C(=O)C(=O)N1CCN(C(=O)c3ccccc3)CC1)cn2COP(=O)(O)O.NCCCC[C@H](N)C(=O)O: 0.3

---

- TEST_DETAILS: AUC (infinity) in healthy human at 800 mg, po administered with high fat meal
- Format: ADME, organism-based
- Set-up: dose 800 mg, time infinity, route oral
- EXPERIMENTAL_PARAMETERS: plasma
REPORTED_PROPERTY: AUC(0-inf) (ng·h/mL)

* COc1cnc(OC)c2c1c(C(=O)C(=O)N1CCN(C(=O)c3ccccc3)CC1)cn2COP(=O)(O)O.NCCCC[C@H](N)C(=O)O | 64100
